Tested on: Rhyzoctonia solani
Assay: Cucumber damping-off control test
Assay type: in vivo
Details: 5 ppm; 14 days after sowing
In this section we review reported Degree of damage values for a set of molecules.
The answer is to be given in %; state only the numeric part.

Solved cases (5 shown):
INSERT INTO measurements (molecule, quantity_unit, observed_value) VALUES
  ('OCC1=C[C@H](N[C@H]2C[C@H](CO)[C@@H](O[C@@H]3O[C@@H](CO)[C@@H](O[C@H]4O[C@@H](CO)[C@@H](O)[C@H](O)[C@H]4O)[C@H](O)[C@H]3O)[C@@H](O)[C@H]2O)[C@@H](O)[C@H](O)[C@H]1O', '%', 10),
  ('OCC1CC(NC2C=C(COC3OC(CO)C(O)C(O)C3O)C(O)C(O)C2O)C(O)C(O)C1OC1OC(CO)C(O)C(O)C1O (stereo not drawn)', '%', 100),
  ('O=[N+]([O-])c1c(Cl)c(Cl)c(Cl)c(Cl)c1Cl [Pentachloronitrobenzene, reference compound]', '%', 100),
  ('OCC1=C[C@@H](N[C@@H]2C[C@@H](CO[C@@H]3O[C@H](CO)[C@@H](O)[C@H](O)[C@H]3O)[C@H](O)[C@@H](O)[C@H]2O)[C@H](O)[C@H](O)[C@H]1O', '%', 100),
  ('OCC1=C[C@H](NC2C(O)C(O)C(O)C(CO)C2O)[C@H](O)[C@@H](O)[C@@H]1O (stereo partly drawn)', '%', 100);

Switching to the query record.
get_value(item= OCC1=CC(NC2CC(CO)C(O)C(O)C2O)C(O)C(O)C1O (stereo not drawn) , readout=Degree of damage) returns 84

---

Assay: Acute toxicity for Oryzias latipes (median lethal dose, 48 hours)
Type: in vivo
Details: medaka, leaving in water solution, read-out: TLm
endpoint: LC50 at 48 h

INSERT INTO results (molecule, endpoint, observed_value) VALUES
  ('OCC1=CC(NC2CC(CO)C(O)C(O)C2O)C(O)C(O)C1O (centres unmarked)', 'LC50 at 48 h', '> 1000 µg/mL');

Switching to the query record.
get_value(item= OCC1=C[C@H](NC2C(O)C(O)C(O)C(CO)C2O)[C@H](O)[C@@H](O)[C@@H]1O (some centres unmarked) , readout=LC50 at 48 h) returns > 1000 µg/mL

---

System: Pellicularia sasakii
Test: Rice sheath blight control test, preventive (prophylactic)
Format: in vivo
Conditions: 100 ppm; 10 days after application; untreated 34.4cm
endpoint: Preventive effect (percent of the average length of lesion/stem per control untreated)
In your response, the unit should come after the numeric value.

INSERT INTO assay_data (compound, observed_value) VALUES
  ('OCC1=C[C@H](N[C@H]2C[C@H](CO)[C@@H](O[C@@H]3O[C@@H](CO)[C@@H](O[C@H]4O[C@@H](CO)[C@@H](O)[C@H](O)[C@H]4O)[C@H](O)[C@H]3O)[C@@H](O)[C@H]2O)[C@@H](O)[C@H](O)[C@H]1O [Validamycin E]', '0%'),
  ('OCC1=CC(NC2CC(CO)C(O)C(O)C2O)C(O)C(O)C1O (centres unmarked) [Validoxylamine A]', '0%');

get_value(item= OCC1CC(NC2C=C(COC3OC(CO)C(O)C(O)C3O)C(O)C(O)C2O)C(O)C(O)C1OC1OC(CO)C(O)C(O)C1O (centres unmarked) [Validamycin C] , readout=Preventive effect (percent of the average length of lesion/stem per control untreated)) returns 1%

get_value(item= OCC1=C[C@@H](N[C@@H]2C[C@@H](CO[C@@H]3O[C@H](CO)[C@@H](O)[C@H](O)[C@H]3O)[C@H](O)[C@@H](O)[C@H]2O)[C@H](O)[C@H](O)[C@H]1O [Validamycin D] , readout=Preventive effect (percent of the average length of lesion/stem per control untreated)) returns 0%

get_value(item= OCC1=C[C@H](NC2C(O)C(O)C(O)C(CO)C2O)[C@H](O)[C@@H](O)[C@@H]1O (some centres unmarked) [Validoxylamine B] , readout=Preventive effect (percent of the average length of lesion/stem per control untreated)) returns 16%
